Recorded values, source the NIST ThermoML archive (doi:10.1016/j.jct.2013.02.004).

Recorded activity coefficient by entry
method_summary: activity coefficient (dimensionless); of the first substance listed, at infinite dilution; xn = mol fraction of the nth substance listed
run_conditions: 368.15 K; 101 kPa; Liquid; Chromatography; x1 = 0
Note: the reply should be a number with no unit written.

- molecule: "C1CCOC1 [tetrahydrofuran] + CCCCCC[n+]1ccc2ccccc2c1.N#C[S-]"
  result_number: 1.5
- molecule: "CC(C)CC(C)(C)C [2,2,4-trimethylpentane] + CCCCCC[n+]1ccc2ccccc2c1.N#C[S-]"
  result_number: 39.1
- molecule: "c1ccncc1 [pyridine] + CCCCCC[n+]1ccc2ccccc2c1.N#C[S-]"
  result_number: 0.745

Next molecule, please.
[ask] Which activity coefficient value belongs to Cc1cccc(C)c1 [1,3-dimethylbenzene] + CCCCCC[n+]1ccc2ccccc2c1.N#C[S-] ?
[reply] 3.01
